Cited source: ChEMBL document CHEMBL1157634

Target: Cholinesterase (Homo sapiens)
Sequence (P06276 whole entry): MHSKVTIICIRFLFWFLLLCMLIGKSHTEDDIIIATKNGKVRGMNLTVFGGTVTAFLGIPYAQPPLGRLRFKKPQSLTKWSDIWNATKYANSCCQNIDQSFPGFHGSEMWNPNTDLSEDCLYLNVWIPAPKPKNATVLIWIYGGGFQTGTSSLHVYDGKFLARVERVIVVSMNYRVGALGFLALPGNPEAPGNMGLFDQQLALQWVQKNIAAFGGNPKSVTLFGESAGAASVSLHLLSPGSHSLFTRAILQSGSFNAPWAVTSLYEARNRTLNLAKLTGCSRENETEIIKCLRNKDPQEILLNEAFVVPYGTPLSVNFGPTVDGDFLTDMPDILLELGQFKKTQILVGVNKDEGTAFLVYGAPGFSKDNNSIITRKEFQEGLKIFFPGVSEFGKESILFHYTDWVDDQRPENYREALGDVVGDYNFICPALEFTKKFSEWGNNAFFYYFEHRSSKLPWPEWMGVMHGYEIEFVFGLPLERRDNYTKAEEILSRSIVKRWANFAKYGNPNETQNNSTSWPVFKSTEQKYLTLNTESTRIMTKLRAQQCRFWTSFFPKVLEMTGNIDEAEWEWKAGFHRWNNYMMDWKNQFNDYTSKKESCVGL
Experiment: Inhibition of human plasma BuChE by modified Ellman's spectrophotometric method
Listed molecules paired with reported Ki
Expressed in µM, but write only the number.

Examples from the recorded data:
# smiles notation, target under test, unit label, Ki
data = [
    ("O=C(NCCN1CCCCC1)N1c2ccccc2Sc2ccccc21", "Cholinesterase (Homo sapiens)", "µM", 0.02),
    ("O=C(NCc1ccccc1)N1c2ccccc2Sc2ccccc21", "Cholinesterase (Homo sapiens)", "µM", 4.45),
    ("O=C(NC1CC1)N1c2ccccc2Sc2ccccc21", "Cholinesterase (Homo sapiens)", "µM", 42.5),
    ("O=C(N1CCCC1)N1c2ccccc2Sc2ccccc21", "Cholinesterase (Homo sapiens)", "µM", 0.56),
    ("O=C(N1CCCCC1)N1c2ccccc2Sc2ccccc21", "Cholinesterase (Homo sapiens)", "µM", 1.56),
]

// next entry
Form field: reported Ki of Cc1ccc(NC(=O)N2c3ccccc3Sc3ccccc32)cc1
12.1

###

Biological target: Acetylcholinesterase (Homo sapiens, UniProt P22303)
Sequence (P22303 whole entry): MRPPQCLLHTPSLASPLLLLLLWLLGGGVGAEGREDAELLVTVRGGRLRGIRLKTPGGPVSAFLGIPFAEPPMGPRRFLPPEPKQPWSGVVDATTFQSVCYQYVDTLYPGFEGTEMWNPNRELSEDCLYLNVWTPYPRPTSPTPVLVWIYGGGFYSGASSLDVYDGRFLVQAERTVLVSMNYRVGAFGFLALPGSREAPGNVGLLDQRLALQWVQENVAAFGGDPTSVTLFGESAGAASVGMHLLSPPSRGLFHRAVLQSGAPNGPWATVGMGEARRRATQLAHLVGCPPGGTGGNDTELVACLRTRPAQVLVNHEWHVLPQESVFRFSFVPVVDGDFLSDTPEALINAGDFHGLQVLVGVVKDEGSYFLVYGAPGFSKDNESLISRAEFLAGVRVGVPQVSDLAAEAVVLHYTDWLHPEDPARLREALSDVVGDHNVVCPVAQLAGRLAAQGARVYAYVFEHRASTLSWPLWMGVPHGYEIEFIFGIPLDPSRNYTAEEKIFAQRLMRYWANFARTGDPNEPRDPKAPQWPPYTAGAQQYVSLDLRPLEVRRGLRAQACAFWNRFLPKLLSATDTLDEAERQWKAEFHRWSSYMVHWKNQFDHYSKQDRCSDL
Test: Inhibition of human recombinant AChE by modified Ellman's spectrophotometric method
Conditions: read-out: Ki
Friendly reminder: Ki below 30 µM is True, at or above is False.

Look over these answered cases.
# smiles notation, assigned label
rows = [
    ("O=C(NCCN1CCCCC1)N1c2ccccc2Sc2ccccc21", "True"),
    ("CN(C)C(=O)N1c2ccccc2Sc2ccccc21", "False"),
    ("CC(C)NC(=O)N1c2ccccc2Sc2ccccc21", "False"),
    ("CNC(=O)N1c2ccccc2Sc2ccccc21", "True"),
]

Continue with the molecule presented below.
Item CC(C)N(CCNC(=O)N1c2ccccc2Sc2ccccc21)C(C)C : Ki beneath 30 µM, strictly?
True

###

Biological target: Acetylcholinesterase (Homo sapiens, UniProt P22303)
Assay: Inhibition of human recombinant AChE by modified Ellman's spectrophotometric method
measure: Ki

# smiles notation, target under test, Ki
rows = [
    ("O=C(NC1CC1)N1c2ccccc2Sc2ccccc21", "Acetylcholinesterase (Homo sapiens, UniProt P22303)", "Not Active"),
    ("CC(C)(C)CNC(=O)N1c2ccccc2Sc2ccccc21", "Acetylcholinesterase (Homo sapiens, UniProt P22303)", "Not Active"),
    ("O=C(NC1CCCCC1)N1c2ccccc2Sc2ccccc21", "Acetylcholinesterase (Homo sapiens, UniProt P22303)", "Not Active"),
    ("CN1CCN(C(=O)N2c3ccccc3Sc3ccccc32)CC1", "Acetylcholinesterase (Homo sapiens, UniProt P22303)", "Not Active"),
    ("COCCNC(=O)N1c2ccccc2Sc2ccccc21", "Acetylcholinesterase (Homo sapiens, UniProt P22303)", "Not Active"),
    ("Cc1ccccc1NC(=O)N1c2ccccc2Sc2ccccc21", "Acetylcholinesterase (Homo sapiens, UniProt P22303)", "Not Active"),
    ("O=C(NCCc1ccccc1)N1c2ccccc2Sc2ccccc21", "Acetylcholinesterase (Homo sapiens, UniProt P22303)", "Not Active"),
    ("CC(C)N(C(=O)N1c2ccccc2Sc2ccccc21)C(C)C", "Acetylcholinesterase (Homo sapiens, UniProt P22303)", "Not Active"),
]

Look up Ki: COc1ccc(NC(=O)N2c3ccccc3Sc3ccccc32)cc1
Not Active

###

Target: UniProtKB P06276
Assay: Inhibition of human plasma BuChE by modified Ellman's spectrophotometric method
Quick reference for Ki among some compounds
The reply should be a number in nM, with the unit left off.

See these solved cases before continuing.
# smiles notation, Ki [nM]
data = [
    ("CC(C)(C)CNC(=O)N1c2ccccc2Sc2ccccc21", 2660),
    ("O=C(NC1CCCCC1)N1c2ccccc2Sc2ccccc21", 2810),
    ("O=C(NCCCN1CCOCC1)N1c2ccccc2Sc2ccccc21", 7860),
    ("O=C(NC1CCC1)N1c2ccccc2Sc2ccccc21", 10000),
]

Record request: Ki value, item CCN(CC)C(=O)N1c2ccccc2Sc2ccccc21
1050
